Origin of values: paper PMC10974272

- Test system: breast cancer cell line (MCF-7)
- protocol.text: MTT cell viability assay, MCF-7
- details: Homo sapiens, MCF7, 72 h
metric.name: CC50 (µM)

1. CN(C)c1ccc(C(=O)N/N=C/c2ccc(C(=O)NO)cc2)cc1 : 38.4
2. O=C(NO)c1ccc(/C=N/NC(=O)c2cc(N3CCOCC3)nc(-c3cccc(O)c3)n2)cc1 : 23
3. CN1CCc2c(c3ccccc3n2Cc2ccc(C(=O)NO)cc2)C1 : 83.6
4. CN(C)C1CCN(C(=O)c2ccc(NC(=O)Nc3ccc(-c4nc(N5CCOCC5)nc(N5CCOCC5)n4)cc3)cc2)CC1 : 0.06

====

- protocol.text: Non-specific microsome protein binding
- Format: in vitro ADME
- details: rat, pH 7.4; liver microsomes 0.5 mg protein/mL, 37 °C, 60 min; read-out: Percentage of ƒu(mic) (unbound fraction in nonspecific microsomal binding)
Below: a set of entries, each annotated with reported fraction unbound at 60 min, 8.3 µM.
metric.name: fraction unbound at 60 min, 8.3 µM

1) CN(C)c1ccc(C(=O)N/N=C/c2ccc(C(=O)NO)cc2)cc1 [LASSBio-1911] : 0.004
2) CN1CCc2c(c3ccccc3n2Cc2ccc(C(=O)NO)cc2)C1 [Tubastatin A, tubastatin A] : 0.131
3) O=C(NO)c1ccc(/C=N/NC(=O)c2cc(N3CCOCC3)nc(-c3cccc(O)c3)n2)cc1 [LASSBio-2208] : 0.937
4) CN(C)C1CCN(C(=O)c2ccc(NC(=O)Nc3ccc(-c4nc(N5CCOCC5)nc(N5CCOCC5)n4)cc3)cc2)CC1 [Gedatolisib, gedatolisib] : 0.503

====

- protocol.text: PAMPA—BBB
- Assay type: in vitro ADME
- Parameters: key: permeable (CNS+); non-permeable (CNS−)
- Description: To obtain information on the permeability potential of LASSBio-2208 on cell membranes, this derivative was tested using the parallel artificial membrane permeability assay (PAMPA) that is used as an in vitro model of passive diffusion and transcellular permeation. In this model, the permeability across two artificial membranes is measured: brain lipid from pig extract in dodecane (called PAMPA—BBB) and L-α soy phosphatidylcholine in dodecane (called PAMPA—TGI). […]
metric.name: Classification BBB

1. CN(C)c1ccc(C(=O)N/N=C/c2ccc(C(=O)NO)cc2)cc1 : CNS−
2. CN1CCc2c(c3ccccc3n2Cc2ccc(C(=O)NO)cc2)C1 : CNS+
3. O=C(NO)c1ccc(/C=N/NC(=O)c2cc(N3CCOCC3)nc(-c3cccc(O)c3)n2)cc1 : CNS−

====

Below: a set of entries, each annotated with reported half-life at 10 μM.
- protocol.text: Plasma stability
- Format: in vitro ADME, rat
- details: rat plasma diluted with phosphate buffer, pH 7.4; rat plasma, 10 μM, 37 °C
metric.name: half-life at 10 μM (h)

1) O=C(NO)c1ccc(/C=N/NC(=O)c2cc(N3CCOCC3)nc(-c3cccc(O)c3)n2)cc1 : 14.4
2) CN(C)c1ccc(C(=O)N/N=C/c2ccc(C(=O)NO)cc2)cc1 : 6.42

====

Below: a set of entries, each annotated with reported Papp.
- protocol.text: PAMPA—GIT
- Assay type: in vitro ADME
- details: PAMPA, read-out: Pe. Exp. GIT
metric.name: Papp (×10⁻⁶ cm/s)

1. CN(C)c1ccc(C(=O)N/N=C/c2ccc(C(=O)NO)cc2)cc1 : 0.359
2. CN1CCc2c(c3ccccc3n2Cc2ccc(C(=O)NO)cc2)C1 : 1.98
3. O=C(NO)c1ccc(/C=N/NC(=O)c2cc(N3CCOCC3)nc(-c3cccc(O)c3)n2)cc1 : 0.39
4. CN(C)C1CCN(C(=O)c2ccc(NC(=O)Nc3ccc(-c4nc(N5CCOCC5)nc(N5CCOCC5)n4)cc3)cc2)CC1 : 1.74

====

Below: a set of entries, each annotated with reported CC50.
- Tested on: PC-3
- protocol.text: SRB cell viability/antiproliferative assay, PC-3
- details: Homo sapiens, PC-3, 48 h
metric.name: CC50 (µM)

1) CN(C)C1CCN(C(=O)c2ccc(NC(=O)Nc3ccc(-c4nc(N5CCOCC5)nc(N5CCOCC5)n4)cc3)cc2)CC1 [Gedatolisib, gedatolisib] : 6.16
2) O=C(NO)c1ccc(/C=N/NC(=O)c2cc(N3CCOCC3)nc(-c3cccc(O)c3)n2)cc1 [LASSBio-2208] : 98.9

====

- Tested on: breast cancer cell line (MCF-7)
- protocol.text: MTT cell viability assay, MCF-7
- details: Homo sapiens, MCF7, 24 h
Below: a set of entries, each annotated with reported CC50.
metric.name: CC50

1. CN1CCc2c(c3ccccc3n2Cc2ccc(C(=O)NO)cc2)C1 : > 100 µM
2. O=C(NO)c1ccc(/C=N/NC(=O)c2cc(N3CCOCC3)nc(-c3cccc(O)c3)n2)cc1 : > 100 µM
3. CN(C)c1ccc(C(=O)N/N=C/c2ccc(C(=O)NO)cc2)cc1 : > 100 µM
4. CN(C)C1CCN(C(=O)c2ccc(NC(=O)Nc3ccc(-c4nc(N5CCOCC5)nc(N5CCOCC5)n4)cc3)cc2)CC1 : 5.04 µM

====

- protocol.text: PAMPA—GIT
- Format: in vitro ADME
- Method: To obtain information on the permeability potential of LASSBio-2208 on cell membranes, this derivative was tested using the parallel artificial membrane permeability assay (PAMPA) that is used as an in vitro model of passive diffusion and transcellular permeation. In this model, the permeability across two artificial membranes is measured: brain lipid from pig extract in dodecane (called PAMPA—BBB) and L-α soy phosphatidylcholine in dodecane (called PAMPA—TGI). […]
metric.name: Fraction Absorbed

1. O=C(NO)c1ccc(/C=N/NC(=O)c2cc(N3CCOCC3)nc(-c3cccc(O)c3)n2)cc1 : 13.78%
2. CN(C)C1CCN(C(=O)c2ccc(NC(=O)Nc3ccc(-c4nc(N5CCOCC5)nc(N5CCOCC5)n4)cc3)cc2)CC1 : 48.4%
3. CN1CCc2c(c3ccccc3n2Cc2ccc(C(=O)NO)cc2)C1 : 52.93%
4. CN(C)c1ccc(C(=O)N/N=C/c2ccc(C(=O)NO)cc2)cc1 : 20.15%

====

- protocol.text: PBMC viability assay by MTT
- Assay type: cell-based, human
- details: MTT 48 h, non-tumour human PBMC
Below: a set of entries, each annotated with reported CC50 at 48 h.
metric.name: CC50 at 48 h

1. CN1CCc2c(c3ccccc3n2Cc2ccc(C(=O)NO)cc2)C1 : 85.7 µM
2. CN(C)c1ccc(C(=O)N/N=C/c2ccc(C(=O)NO)cc2)cc1 : > 100 µM
3. O=C(NO)c1ccc(/C=N/NC(=O)c2cc(N3CCOCC3)nc(-c3cccc(O)c3)n2)cc1 : > 100 µM
